# Measurement Target: Limulus amoebocyte lysate factor G (Tachypleus tridentatus)
# Construct: Prepared from Japanese horseshoe crab, T. tridentatus; from tissue; host or cells: amoebocyte (hemocyte) lysate of the Japanese horseshoe crab T. tridentatus, factor G fraction
# Sequence (Q27082 20-673): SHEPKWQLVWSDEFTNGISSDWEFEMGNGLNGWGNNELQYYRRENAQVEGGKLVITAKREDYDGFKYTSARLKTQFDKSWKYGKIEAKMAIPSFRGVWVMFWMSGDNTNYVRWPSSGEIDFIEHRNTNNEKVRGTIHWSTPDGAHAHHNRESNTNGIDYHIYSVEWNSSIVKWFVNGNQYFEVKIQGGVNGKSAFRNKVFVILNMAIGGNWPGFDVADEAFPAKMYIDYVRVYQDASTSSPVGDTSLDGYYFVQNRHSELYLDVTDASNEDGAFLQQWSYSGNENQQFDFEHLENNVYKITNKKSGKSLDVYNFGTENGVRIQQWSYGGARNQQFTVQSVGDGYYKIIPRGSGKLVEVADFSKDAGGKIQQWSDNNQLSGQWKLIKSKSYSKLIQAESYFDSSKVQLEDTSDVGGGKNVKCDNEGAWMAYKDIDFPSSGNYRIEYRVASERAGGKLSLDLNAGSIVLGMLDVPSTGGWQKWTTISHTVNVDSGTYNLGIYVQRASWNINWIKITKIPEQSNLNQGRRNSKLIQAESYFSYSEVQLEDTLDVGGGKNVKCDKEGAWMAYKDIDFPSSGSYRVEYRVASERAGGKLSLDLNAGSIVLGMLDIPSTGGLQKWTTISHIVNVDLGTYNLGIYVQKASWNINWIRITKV
# Sequence (Q27083 32-309 partner): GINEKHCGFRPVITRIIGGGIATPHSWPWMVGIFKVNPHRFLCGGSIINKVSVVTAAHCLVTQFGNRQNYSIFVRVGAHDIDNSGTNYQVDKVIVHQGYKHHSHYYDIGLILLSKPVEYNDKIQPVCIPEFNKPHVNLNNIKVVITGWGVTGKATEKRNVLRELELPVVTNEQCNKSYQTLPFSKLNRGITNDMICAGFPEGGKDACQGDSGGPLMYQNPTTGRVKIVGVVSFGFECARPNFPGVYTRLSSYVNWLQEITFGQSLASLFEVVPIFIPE
# Experiment Notes: Activation titer determination method of factor G activation inhibiting substance (GI)
# Format: biochemical, T. tridentatus
# Setup Conditions: 10 pg GA (No. 106); 37° C., 30 minutes; GI amount causing 100% inhibition of factor G activation = 100 units
# Procedure: The factor G activation inhibitory titer was measured according to the following activation titer determination method of factor G activation inhibiting substance and represented as units per mg. Activation titer determination method of factor G activation inhibiting substance (hereinafter, sometimes abbreviated as GI) A 200 μl portion of a reaction mixture has the following composition. […]
Property: Factor G Activation Inhibitory Titer

>>> recorded_result("OC[C@H]1OC(O)[C@H](O)[C@@H](O)[C@@H]1O (stereo partly drawn)")
"< 100 unit/mg"
>>> recorded_result("OC[C@H]1O[C@@H](O[C@@H]2[C@@H](O)[C@H](O[C@H]3[C@H](O)[C@@H](CO)OC(O)[C@@H]3O)O[C@H](CO)[C@H]2O)[C@H](O)[C@@H](O)[C@@H]1O (stereo partly drawn)")
"4,670 unit/mg"
>>> recorded_result("OC[C@H]1O[C@@H](O[C@@H]2[C@@H](O)[C@H](O[C@@H]3[C@@H](O)[C@H](O[C@@H]4[C@@H](O)[C@H](O[C@@H]5[C@@H](O)[C@H](O[C@@H]6[C@@H](O)[C@H](O[C@H]7[C@H](O)[C@@H](CO)OC(O)[C@@H]7O)O[C@H](CO)[C@H]6O)O[C@H](CO)[C@H]5O)O[C@H](CO)[C@H]4O)O[C@H](CO)[C@H]3O)O[C@H](CO)[C@H]2O)[C@H](O)[C@@H](O)[C@@H]1O (stereo partly drawn)")
"103,000 unit/mg"

====

# Measurement Target: Limulus amoebocyte lysate factor G (Tachypleus tridentatus, UniProt Q27082)
# Construct: Prepared from Japanese horseshoe crab, T. tridentatus; from tissue; host or cells: amoebocyte (hemocyte) lysate of the Japanese horseshoe crab T. tridentatus, factor G fraction
# Experiment Notes: Activation titer determination method of factor G activation inhibiting substance (GI)
# Format: biochemical, T. tridentatus
# Setup Conditions: 10 pg GA (No. 106); 37° C., 30 minutes; GI amount causing 100% inhibition of factor G activation = 100 units
Property: Factor G Activation Inhibitory Titer

>>> recorded_result("OC[C@H]1O[C@@H](O[C@@H]2[C@@H](O)[C@H](O[C@@H]3[C@@H](O)[C@H](O[C@H]4[C@H](O)[C@@H](CO)OC(O)[C@@H]4O)O[C@H](CO)[C@H]3O)O[C@H](CO)[C@H]2O)[C@H](O)[C@@H](O)[C@@H]1O (stereo partly shown) [compound 7, Laminaritetraose]")
"20,000 unit/mg"
>>> recorded_result("OC[C@H]1O[C@@H](O[C@@H]2[C@@H](O)[C@H](O[C@@H]3[C@@H](O)[C@H](O[C@@H]4[C@@H](O)[C@H](O[C@H]5[C@H](O)[C@@H](CO)OC(O)[C@@H]5O)O[C@H](CO)[C@H]4O)O[C@H](CO)[C@H]3O)O[C@H](CO)[C@H]2O)[C@H](O)[C@@H](O)[C@@H]1O (stereo partly shown) [compound 8, Laminaripentaose]")
"39,800 unit/mg"
>>> recorded_result("OC[C@H]1O[C@@H](O[C@H]2[C@H](O)[C@@H](CO)OC(O)[C@@H]2O)[C@H](O)[C@@H](O)[C@@H]1O (stereo partly shown) [compound 5, Laminaribiose]")
"214 unit/mg"
>>> recorded_result("OC[C@H]1O[C@@H](O[C@@H]2[C@@H](O)[C@H](O[C@@H]3[C@@H](O)[C@H](O[C@@H]4[C@@H](O)[C@H](O[C@@H]5[C@@H](O)[C@H](O[C@H]6[C@H](O)[C@@H](CO)OC(O)[C@@H]6O)O[C@H](CO)[C@H]5O)O[C@H](CO)[C@H]4O)O[C@H](CO)[C@H]3O)O[C@H](CO)[C@H]2O)[C@H](O)[C@@H](O)[C@@H]1O (stereo partly shown) [compound 9, Laminarihexaose]")
"55,000 unit/mg"
